pIC50: −log10 of the molar value.
Here we gather pIC50 data for CD73 (Homo sapiens (Human)) reported by several publications.

| molecule | reported-value |
| --- | --- |
| O=C(NC1CCCC1)O[C@@H]1CCN(c2cnn(CC(O)CO)c(=O)c2Cl)C1 (stereo partly drawn) | 5.00 to 9.00 |
| O=P(O)(O)CP(=O)(O)OC[C@H]1O[C@@H](n2cnc3c(NC45CC6CC(CC(C6)C4)C5)nc(Cl)nc32)[C@@H](O)C1O (stereo partly drawn) | > 8.00 |
| CC(CO)(OC[C@H]1O[C@@H](n2ncc3c(N[C@H]4CC[C@@H]5CCC[C@@H]54)nc(Cl)nc32)[C@H](O)[C@@H]1O)P(=O)(O)O (stereo partly drawn) | ≥ 7.00 |
| O=C(NC1CCC(F)(F)CC1)O[C@@H]1CCN(c2cnn(CC(O)CO)c(=O)c2Cl)C1 (stereo partly drawn) | 5.00 to 9.00 |
| O=P(O)(O)CP(=O)(O)OC[C@H]1C[C@@H](c2ccc3c(N[C@H]4CCc5cc(F)cc(F)c54)nc(Cl)nn23)[C@H](O)[C@@H]1O | 7.55 |
| CC(C)OC(=O)OCOP(=O)(CC(=O)N(C)C[C@H]1O[C@@H](n2cnc3c(NC4CCCC4)nc(Cl)nc32)[C@H](O)[C@@H]1O)OCOC(=O)OC(C)C | < 6.00 |
| CN([C@H]1CC[C@H](NC(=O)O[C@@H]2CCN(c3cn[nH]c(=O)c3Cl)C2)CC1)S(C)(=O)=O | 5.00 to 9.00 |
| C[C@](CO)(OC[C@H]1O[C@@H](n2ncc3c(NC4CCCC4)nc(CO)nc32)[C@H](O)[C@@H]1O)P(=O)(O)O | ≥ 7.00 |
| CCOc1cccc(NC(=O)N[C@@H]2CCN(c3cn[nH]c(=O)c3Cl)C2)c1 | 4.00 to 5.00 |
| O=C(NC1CCN(C(=O)Nc2ccc(OC(F)(F)F)cc2)CC1)O[C@@H]1CCN(c2cn[nH]c(=O)c2Cl)C1 | 5.00 to 9.00 |

# lookup: pIC50 of O=P(O)(O)CP(=O)(O)OC[C@H]1C[C@@H](c2ccc3c(N[C@H]4CCc5cc(F)ccc54)nc(Cl)nn23)[C@H](O)[C@@H]1O
7.08

# lookup: pIC50 of N#CC(OC[C@H]1O[C@@H](n2ncc3c(NC4CCCC4)nc(Cl)nc32)[C@H](O)[C@@H]1O)P(=O)(O)O (stereo partly drawn)
6.00 to 7.00

# lookup: pIC50 of COCC(COCc1nn[nH]n1)(OC[C@H]1O[C@@H](n2ncc3c(NC4CCCC4)nc(C#CC4CC4)nc32)[C@H](O)[C@@H]1O)P(=O)(O)O (stereo partly drawn)
≥ 8.00

# lookup: pIC50 of O=C(NC1CCCC1(F)F)O[C@@H]1CCN(c2cn[nH]c(=O)c2Cl)C1 (stereo partly drawn)
5.00 to 9.00

# lookup: pIC50 of O=P(O)(O)CS(=O)(=O)C[C@H]1O[C@@H](n2ncc3c(NCc4ccccc4Cl)nc(Cl)nc32)[C@H](O)[C@@H]1O
≥ 6.30

# lookup: pIC50 of O=P(O)(O)COC[C@H]1O[C@@H](n2ncc3c(NCc4cccc(Cl)c4)nc(Cl)nc32)[C@H](O)[C@@H]1O
≥ 6.30
